Numbers sourced from ChEMBL document CHEMBL1141096.

assay: Volume of distribution of compound upon i.v. dose of 1 mg/kg in rats; format: ADME, organism-based; design: dose 1 mg/kg, route intravenous; settings: rat, in vivo, iv
recorded.metric: Vd (L/kg)

chem.smiles	Vd / L/kg
CC(C)Oc1ccc(-c2nc(-c3ccc(CN4CC(C(=O)O)C4)cc3)no2)cc1	2.2
CC(C)Cc1ccc(-c2nc(-c3ccc(CN4CC(C(=O)O)C4)cc3)no2)cc1	2.8
O=C(O)C1CN(Cc2ccc(-c3noc(-c4ccc([C@H]5CCC(F)(F)C5)cc4)n3)cc2)C1	3
O=C(O)C1CN(Cc2ccc(-c3noc(-c4ccc(CCC(F)(F)F)cc4)n3)cc2)C1	2.3
